meta.source: patent US10669242B2

- system-under-test: recombinant glucosyltransferase domain of C. difficile Toxin B/TcdB (Clostridioides difficile, UniProt P18177)
- Construct: 6-His (C); purchased R&D Systems 6246-GT
- Sequence (P18177 1-543): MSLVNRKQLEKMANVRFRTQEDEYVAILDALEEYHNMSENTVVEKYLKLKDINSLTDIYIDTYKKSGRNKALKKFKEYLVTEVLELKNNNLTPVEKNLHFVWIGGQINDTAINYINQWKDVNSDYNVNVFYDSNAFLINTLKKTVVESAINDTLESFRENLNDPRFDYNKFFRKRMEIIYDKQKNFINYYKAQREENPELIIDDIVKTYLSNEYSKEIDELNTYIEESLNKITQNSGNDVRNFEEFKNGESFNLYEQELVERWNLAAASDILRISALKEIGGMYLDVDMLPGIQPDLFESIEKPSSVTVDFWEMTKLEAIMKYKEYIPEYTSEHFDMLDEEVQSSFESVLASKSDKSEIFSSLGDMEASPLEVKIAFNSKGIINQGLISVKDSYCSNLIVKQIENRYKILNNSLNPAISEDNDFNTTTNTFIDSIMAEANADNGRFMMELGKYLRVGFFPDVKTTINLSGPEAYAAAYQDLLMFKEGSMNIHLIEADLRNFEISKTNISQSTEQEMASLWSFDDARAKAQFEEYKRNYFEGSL
- test: biochemical
Examples of molecules with documented IC50 follow.

1. O=C(Nc1ccc(C(F)(F)F)cn1)c1ccc(CN2C(=O)c3ccc(Cl)cc3NC(=O)[C@H]2Cc2ccccn2)cc1Cl [Example 5ae]    < 100 nM
2. Cc1ccc(NC(=O)c2ccc(CN3C(=O)c4ccc(NC(=O)c5cc(C)on5)cc4NC(=O)[C@H]3C)cc2)nc1 [Example 18c]    1000 to 10000 nM
3. CCc1ccc(NC(=O)c2ccc(CN3C(=O)c4ccc(Cl)cc4NC(=O)[C@H]3Cc3ccccn3)cc2)nc1 [Example 4ap]    < 100 nM
4. O=C(Nc1ccc(CN2C(=O)c3ccc(Cl)cc3NC(=O)[C@H]2Cc2ccccn2)cc1)c1ccccn1 [Example 26b]    < 100 nM
5. Cc1nnc(NC(=O)c2ccc(CN3C(=O)c4ccc(Cl)cc4NC(=O)[C@H]3Cc3ccccn3)cc2)[nH]1 [Example 4bj]    1000 to 10000 nM

Attention now shifts to the item below.
Quick check: IC50 of C[C@@H]1C(=O)Nc2cc(Cl)ccc2C(=O)N1Cc1ccc(C(=O)O)cc1 [Example 3g] ?
10000 to 35000 nM

###

Each entry below carries its recorded pIC50.
- system-under-test: recombinant glucosyltransferase domain of C. difficile Toxin B/TcdB (Clostridioides difficile)
- Construct: 6-His (C); purchased R&D Systems 6246-GT
- test: biochemical
pIC50: −log10 of the molar value.

Can you share its pIC50? I mean this compound: O=C(O)c1ccc(CN2C(=O)c3ccc(Cl)cc3NC(=O)[C@H]2Cc2ccccn2)cc1 [Example 1a]
6.00 to 7.00

Quick check: pIC50 of O=C(CS)Nc1ccc(CN2C(=O)c3ccc(Cl)cc3NC(=O)[C@H]2Cc2ccccn2)cc1 [Example 29a] ?
5.00 to 6.00

Which pIC50 is reported for this compound? O=C(O)c1ccc(CN2C(=O)c3ccc(Cl)cc3NC(=O)[C@H]2Cc2ccccn2)cc1-c1cccnc1 [Example 8m]
5.00 to 6.00

Which pIC50 value is on record for O=C(O)c1ccc(CN2C(=O)c3ccc(Cl)cc3NC(=O)[C@H]2Cc2ccccn2)cc1-c1ccccc1 [Example 8e] ?
6.00 to 7.00

Requested field: pIC50. Item: O=C(Nc1ccc(CN2C(=O)c3ccc(Cl)cc3NC(=O)[C@H]2Cc2cccnc2)cc1)c1ccccn1 [Example 26a]
6.00 to 7.00

Bench note: what pIC50 did COc1cc(CN2C(=O)c3ccc(Cl)cc3NC(=O)[C@H]2Cc2ccccn2)ccc1C(=O)Nc1cnc(C)cn1 [Example 5aj] show?
> 7.00

Give the measured pIC50 of Cc1cnc(NC(=O)c2ccc(CN3C(=O)c4ccc(Cl)cc4NC(=O)[C@H]3Cc3ccccn3)cc2Cl)cn1 [Example 5aa] .
> 7.00

###

- system-under-test: recombinant glucosyltransferase domain of C. difficile Toxin B/TcdB (Clostridioides difficile, UniProt P18177)
- Construct: 6-His (C); purchased R&D Systems 6246-GT
- test: biochemical
pIC50: −log10 of the molar value.
measured-property: pIC50

1) C[C@H]1C(=O)Nc2cc(Cl)ccc2C(=O)N1Cc1ccc(C(=O)O)cc1 [Example 3b]    4.46 to 5.00

What value of pIC50 has been reported for the following compound? COc1ccc(-c2cc(CN3C(=O)c4ccc(Cl)cc4NC(=O)[C@H]3Cc3ccccn3)ccc2C(=O)O)cc1 [Example 8f]
6.00 to 7.00

Would you mind telling me what pIC50 value was observed for O=C(CN1CCCC1)Nc1cc(CN2C(=O)c3ccc(Cl)cc3NC(=O)[C@H]2Cc2ccccn2)ccc1C(=O)O [Example 22n] ?
6.00 to 7.00

Need pIC50, item COc1cc(CN2C(=O)c3ccc(Cl)cc3NC(=O)[C@H]2Cc2ccccn2)ccc1C(=O)Nc1ccc(C(F)(F)F)cn1 [Example 4au]
> 7.00

###

- system-under-test: recombinant glucosyltransferase domain of C. difficile Toxin B/TcdB (Clostridioides difficile, UniProt P18177)
- Construct: 6-His (C); purchased R&D Systems 6246-GT
- test: biochemical
pIC50: −log10 of the molar value.
measured-property: pIC50

Field: example entries. Status: answers known.
1. CC1(C)CN(C(=O)c2ccc(CN3C(=O)c4ccc(Cl)cc4NC(=O)[C@H]3Cc3ccccn3)cc2Cl)c2ncc(C(F)(F)F)cc21 [Example 5aw]    > 7.00
2. C[C@@H]1C(=O)Nc2cc(Cl)ccc2C(=O)N1Cc1ccc(C(=O)Nc2ccc(C(F)(F)F)cn2)c(Br)c1 [Example 5ar]    5.00 to 6.00
3. COc1cnc(NC(=O)[C@H]2CC[C@H](CN3C(=O)c4ccc(Cl)cc4NC(=O)[C@H]3Cc3ccccn3)CC2)cn1 [Example 4ce]    6.00 to 7.00
4. COc1cc(CN2C(=O)c3ccc(Cl)cc3NC(=O)[C@H]2Cc2ccccn2)ccc1C(=O)c1ccccn1 [Example 11j]    > 7.00
5. C[C@H]1C(=O)Nc2cc(Cl)ccc2C(=O)N1Cc1ccc(C(=O)Nc2ccccn2)cc1 [Example 4f]    > 7.00

Could you share which pIC50 value was measured for O=C(CO)Nc1cc(CN2C(=O)c3ccc(Cl)cc3NC(=O)[C@H]2Cc2ccccn2)ccc1C(=O)O [Example 22o] ?
6.00 to 7.00

What measured pIC50 goes with Cc1ccc(NC(=O)c2ccc(CN3C(=O)c4ccc(Cl)cc4NC(=O)[C@@H]3Cc3cscn3)cc2)nc1 [Example 35a] ?
6.00 to 7.00

Look up pIC50 for this molecule: COc1ccc(NC(=O)c2ccc(CN3C(=O)c4ccc(Cl)cc4NC(=O)[C@H]3Cc3ccccn3)cc2C)nc1 [Example 4cl]
> 7.00

Quick check: pIC50 of Cc1cc(CN2C(=O)c3ccc(Cl)cc3NC(=O)[C@H]2Cc2ccccn2)ccc1C(=O)O [Example 7b] ?
6.00 to 7.00

Quick check: pIC50 of Cc1cc(CN2C(=O)c3ccc(Cl)cc3NC(=O)[C@H]2Cc2ccccn2)ccc1C(=O)c1ccccn1 [Example 11h] ?
> 7.00

###

- system-under-test: recombinant glucosyltransferase domain of C. difficile Toxin B/TcdB (Clostridioides difficile, UniProt P18177)
- Construct: 6-His (C); purchased R&D Systems 6246-GT
- test: biochemical
pIC50: −log10 of the molar value.
# pIC50 listing for each entry below

1. O=C1CN(Cc2ccc(C(=O)O)cc2)C(=O)c2ccc(Cl)cc2N1    4.46 to 5.00
2. COc1cnc(NC(=O)c2ccc(CN3C(=O)c4ccc(Cl)cc4NC(=O)[C@H]3Cc3cnccn3)cc2)nc1    > 7.00
3. CN1CCC(CC(=O)Nc2cc(CN3C(=O)c4ccc(Cl)cc4NC(=O)[C@H]3Cc3ccccn3)ccc2C(=O)O)CC1 [Example 22l]    6.00 to 7.00
4. Cc1ccc(C[C@@H]2C(=O)Nc3cc(Cl)ccc3C(=O)N2Cc2ccc(C(=O)O)cc2)cc1    4.46 to 5.00
5. Cc1nnc(NC(=O)c2ccc(CN3C(=O)c4ccc(Cl)cc4NC(=O)[C@H]3Cc3ccccn3)cc2)s1    5.00 to 6.00

Which pIC50 reading was recorded for the compound COc1ccc(NC(=O)c2ccc(CN3C(=O)c4ccc(Cl)cc4NC(=O)[C@H]3Cc3cccnc3)cc2)nc1 ?
> 7.00

What measured pIC50 goes with CCc1ccc(NC(=O)c2ccc(CN3C(=O)c4ccc(Cl)cc4NC(=O)[C@H]3C)cc2)nc1 ?
6.00 to 7.00

Fill blank: measured pIC50 of the compound O=C(O)c1ccc(CN2C(=O)c3ccc(F)cc3NC(=O)[C@H]2Cc2cccnc2)cc1 is ____.
5.00 to 6.00

Suppose we examine the compound O=C(NS(=O)(=O)c1ccc(Cl)cc1)c1ccc(CN2C(=O)c3ccc(Cl)cc3NC(=O)[C@H]2Cc2cccnc2)cc1 [Example 15c] ; what pIC50 value has been reported?
5.00 to 6.00

Item under review: Cc1cnc(NC(=O)[C@H]2CC[C@H](CN3C(=O)c4ccc(Cl)cc4NC(=O)[C@H]3Cc3ccccn3)CC2)cn1 . Reported pIC50?
> 7.00

Which pIC50 value belongs to COCC(=O)Nc1cccc(CN2C(=O)c3ccc(Cl)cc3NC(=O)[C@H]2Cc2ccccn2)c1 [Example 28b] ?
5.00 to 6.00

Which value of pIC50 has been reported for O=C(O)c1ccc(CN2C(=O)c3ccc(Cl)cc3NC(=O)[C@H]2Cc2ccccn2)cc1-c1ccc2c(c1)OCO2 in the records?
6.00 to 7.00

What value of pIC50 has been reported for the following compound? CC1(C)Cc2cccnc2N1C(=O)c1ccc(CN2C(=O)c3ccc(Cl)cc3NC(=O)[C@H]2Cc2ccccn2)cc1Cl
> 7.00

Given the compound O=C(c1ccc(CN2C(=O)c3ccc(Cl)cc3NC(=O)[C@H]2Cc2ccccn2)cc1)c1cccc2cccnc12 [Example 31b] , what is its reported pIC50?
5.00 to 6.00

Reported pIC50, compound O=C(O)c1ccc(CN2C(=O)c3ccc(Cl)cc3NC(=O)[C@H]2Cc2ccccn2)cc1NC(=O)C1CCOCC1 [Example 22m] : ____
6.00 to 7.00

I am curious: what pIC50 value has been reported for Cc1ccc(NC(=O)c2ccc(CN3C(=O)c4ccc(Cl)cc4NC(=O)[C@H]3CCN3CCNC(=O)C3)cc2)nc1 [Example 10e] ?
5.00 to 6.00

Dear colleague, I am looking for the recorded pIC50 of the following compound: COc1ccc(NC(=O)c2ccc(CN3C(=O)c4ccc(Cl)cc4NC(=O)C3Cc3cnccn3)cc2)nc1 (centres unmarked)
> 7.00

GET /values?readout=pIC50&item= COc1ccc(NC(=O)c2ccc(CN3C(=O)c4ccc(Cl)cc4NC(=O)[C@H]3Cc3ccccn3)s2)nc1
6.00 to 7.00
